Would you mind telling me the reported Kd of each entry?
measured.on: HLA-A*01:01
assay.details: IEDB peptide-MHC binding, purified MHC/direct/fluorescence; filed as Kd, often an IC50 or EC50 that approximates it; bounds were set here for any values at or beyond the usual limits of such assays
measurement.parameters: source organism: Mycobacterium tuberculosis

[ask] Which Kd is listed for YPACEAIGL ?
[reply] ≥ 20 µM

[ask] Record request: Kd value, item RPAPATGAL
[reply] ≥ 20 µM

[ask] Report Kd for KVMVICYAY please.
[reply] 11.8 µM

====

measured.on: HLA-A*24:03
assay.details: IEDB peptide-MHC binding, purified MHC/direct/fluorescence; filed as Kd, often an IC50 or EC50 that approximates it; bounds were set here for any values at or beyond the usual limits of such assays
measurement.parameters: source organism: Vibrio cholerae
measure: Kd

[ask] Could you tell me which Kd is on file for DTDISQLHH ?
[reply] ≥ 20 µM
